system: KARPAS-422 cells; test: Cell proliferation analysis, KARPAS-422, 13 days, CellTiter-Glo; assay type: cell-based; details: Homo sapiens, 312 h
Mark true (1) only for IC50 values smaller than 0.003 µM; exact matches and larger values are false (0).

>>> qualitative_label("CN1CCN(c2ccc(-c3cnc(NCc4c(F)ccc5c4CCO5)n4cnnc34)c3ncnn23)CC1")
"true (1)"
>>> qualitative_label("O=S1(=O)C=Cc2c(-c3cnc(NCc4c(F)ccc5c4CCO5)n4cnnc34)cccc21")
"false (0)"
>>> qualitative_label("N#Cc1ccc(-c2cnc(NCc3c(F)ccc4c3CCO4)n3cnnc23)c2nccn12")
"false (0)"
>>> qualitative_label("CC1=Cc2ccc(-c3cnc(NCc4c(F)ccc5c4CCO5)n4cnnc34)cc2S1(=O)=O")
"false (0)"
>>> qualitative_label("CC(=O)NCc1cnc2c(-c3cnc(NCc4c(F)ccc5c4CCO5)n4cnnc34)ccc(C)n12")
"false (0)"
>>> qualitative_label("CC1=Cc2c(-c3cnc(NCc4c(F)ccc5c4CCO5)n4cnnc34)cccc2S1(=O)=O")
"false (0)"
>>> qualitative_label("Fc1ccc2c(c1CNc1ncc(-c3cnc4ccnn4c3)c3nncn13)CCO2")
"false (0)"
>>> qualitative_label("CC(=O)c1c(C)nc2c(-c3cnc(NCc4c(F)ccc5c4CCO5)n4cnnc34)cc(F)cn12")
"true (1)"
>>> qualitative_label("Cc1ccc(-c2cnc(NCc3c(F)ccc4c3CCO4)n3cnnc23)c2ncc(CC(N)=O)n12")
"false (0)"

---

test system: KARPAS-422 cells; assay: Cell proliferation analysis, KARPAS-422, 13 days, CellTiter-Glo; assay type: cell-based; settings: Homo sapiens, 312 h
Parameter measured: IC50 (µM)

>>> data_value("CC1=CS(=O)(=O)c2ccc(-c3cnc(NCc4c(F)ccc5c4[C@H]4C[C@H]4O5)n4cnnc34)cc21")
0.0243
>>> data_value("CC1=C(F)S(=O)(=O)c2ccc(-c3cnc(NCc4c(F)ccc5c4[C@H]4C[C@H]4O5)n4cnnc34)cc21")
0.032
>>> data_value("Cc1ccc(-c2cnc(NCc3c(F)ccc4c3CCO4)n3cnnc23)c2nccn12")
0.0013
>>> data_value("Fc1ccc2c(c1CNc1ncc(-c3ccc(C(F)(F)F)n4ccnc34)c3nncn13)CCO2")
0.007
>>> data_value("Fc1ccc2c(c1CNc1ncc(-c3ccc(C(F)(F)F)n4ncnc34)c3nncn13)CCO2")
0.036

---

system: KARPAS-422 cells; assay: Cell proliferation analysis, KARPAS-422, 13 days, CellTiter-Glo; assay type: cell-based; conditions: Homo sapiens, 312 h
Threshold check on IC50: strictly below 0.004 µM is label 1; on or above 0.004 µM is label 0.

>>> qualitative_label("Cc1ccc(-c2cnc(NCc3c(F)ccc4c3CCO4)n3cnnc23)c2nnnn12")
"label 1"
>>> qualitative_label("N#Cc1cnc2c(-c3cnc(NCc4c(F)ccc5c4CCO5)n4cnnc34)ccc(N3CCOCC3)n12")
"label 1"
>>> qualitative_label("Cc1ccc(-c2cnc(NCc3c(F)ccc4c3CCO4)n3cnnc23)c2ncc(C#N)n12")
"label 1"
>>> qualitative_label("Fc1ccc2c(c1CNc1ncc(-c3ccc(N4CCOCC4)n4ncnc34)c3nncn13)CCO2")
"label 1"
>>> qualitative_label("OCc1ccc(-c2cnc(NCc3c(F)ccc4c3CCO4)n3cnnc23)c2nccn12")
"label 0"
>>> qualitative_label("CN1CCN(Cc2ccc(-c3cnc(NCc4c(F)ccc5c4CCO5)n4cnnc34)c3ncnn23)CC1")
"label 1"
>>> qualitative_label("N#Cc1cnc2c(-c3cnc(NCc4c(F)ccc5c4CCO5)n4cnnc34)cccn12")
"label 1"
>>> qualitative_label("Fc1ccc2c(c1CNc1ncc(-c3ccc(CN4CCOCC4)n4ncnc34)c3nncn13)CCO2")
"label 1"
>>> qualitative_label("Cc1ccc(-c2cnc(NCc3c(F)ccc4c3CCO4)n3cnnc23)c2nc(CO)cn12")
"label 1"
>>> qualitative_label("Cc1ccc(-c2cnc(NCc3c(F)ccc4c3CCO4)n3cnnc23)c2ncc(C(=O)N3CCOCC3)n12")
"label 1"
>>> qualitative_label("Fc1cc(-c2cnc(NCc3c(F)ccc4c3CCO4)n3cnnc23)c2nccn2c1")
"label 1"
>>> qualitative_label("Fc1ccc2c(c1CNc1ncc(-c3cnn4cccnc34)c3nncn13)CCO2")
"label 0"
>>> qualitative_label("CN(C)c1nc2c(-c3cnc(NCc4c(F)ccc5c4CCO5)n4cnnc34)cc(F)cn2n1")
"label 0"
>>> qualitative_label("O=S1(=O)C=c2ccc(-c3cnc(NCc4c(F)ccc5c4[C@H]4C[C@H]4O5)n4cnnc34)cc2=C1")
"label 1"
>>> qualitative_label("Fc1ccc2c(c1CNc1ncc(-c3ccc(Cl)n4ncnc34)c3nncn13)CCO2")
"label 0"
>>> qualitative_label("CN(C)Cc1ccc(-c2cnc(NCc3c(F)ccc4c3CCO4)n3cnnc23)c2ncc(C#N)n12")
"label 1"
>>> qualitative_label("CN(C)C(=O)c1cnc2c(-c3cnc(NCc4c(F)ccc5c4CCO5)n4cnnc34)cc(F)cn12")
"label 1"
>>> qualitative_label("Fc1cc(-c2cnc(NCc3c(F)ccc4c3CCO4)n3cnnc23)c2nc(C(F)(F)F)cn2c1")
"label 0"
>>> qualitative_label("Cc1ccc(-c2cnc(NCc3c(F)ccc4c3CCO4)n3cnnc23)c2ncc(C(C)C)n12")
"label 1"
>>> qualitative_label("O=S1(=O)C=Cc2cc(-c3cnc(NCc4c(F)ccc5c4CCO5)n4cnnc34)cc(F)c21")
"label 1"
>>> qualitative_label("Fc1ccc2c(c1CNc1ncc(-c3ccc(Cn4ccnc4)n4ncnc34)c3nncn13)CCO2")
"label 1"
>>> qualitative_label("Fc1ccc2c(c1CNc1ncc(-c3cccn4c(Cc5ccccc5)cnc34)c3nncn13)CCO2")
"label 1"
>>> qualitative_label("CC(C)(O)CNCc1ccc(-c2cnc(NCc3c(F)ccc4c3CCO4)n3cnnc23)c2ncnn12")
"label 1"
>>> qualitative_label("CC1=C(F)c2cc(-c3cnc(NCc4c(F)ccc5c4[C@H]4C[C@H]4O5)n4cnnc34)ccc2S1(=O)=O")
"label 0"
>>> qualitative_label("CN(C)c1ccc(-c2cnc(NCc3c(F)ccc4c3CCO4)n3cnnc23)c2ncnn12")
"label 1"
>>> qualitative_label("Fc1ccc2c(c1CNc1ncc(-c3cccn4ncnc34)c3nncn13)[C@H]1C[C@H]1O2")
"label 1"
>>> qualitative_label("Cc1ccc(-c2cnc(NCc3c(F)ccc4c3CCO4)n3cnnc23)c2ncc(CC(=O)O)n12")
"label 0"
>>> qualitative_label("Cc1ccc(-c2cnc(NCc3c(F)ccc4c3CCO4)n3cnnc23)c2ncc(CC(=O)N(C)C)n12")
"label 0"
>>> qualitative_label("CCc1cnc2c(-c3cnc(NCc4c(F)ccc5c4CCO5)n4cnnc34)cccn12")
"label 1"
>>> qualitative_label("Fc1ccc2c(c1CNc1ncc(-c3ccn4ncnc4c3)c3nncn13)[C@H]1C[C@H]1O2")
"label 0"
>>> qualitative_label("COc1cc(-c2cnc(NCc3c(F)ccc4c3CCO4)n3cnnc23)c2ncc(C#N)n2c1")
"label 0"
>>> qualitative_label("Fc1ccc2c(c1CNc1ncc(-c3cccc4scnc34)c3nncn13)CCO2")
"label 1"
>>> qualitative_label("Fc1ccc2c(c1CNc1ncc(-c3ccc4nncn4c3)c3nncn13)[C@H]1C[C@H]1O2")
"label 0"
>>> qualitative_label("Cc1nc2c(-c3cnc(NCc4c(F)ccc5c4CCO5)n4cnnc34)cccc2o1")
"label 0"
>>> qualitative_label("CC(C)(O)c1ccc(-c2cnc(NCc3c(F)ccc4c3CCO4)n3cnnc23)c2ncnn12")
"label 1"
>>> qualitative_label("Cn1cnc2c(-c3cnc(NCc4c(F)ccc5c4CCO5)n4cnnc34)cccc21")
"label 1"

---

tested on: KARPAS-422 cells; test: Cell proliferation analysis, KARPAS-422, 13 days, CellTiter-Glo; format: cell-based; conditions: Homo sapiens, 312 h
Each entry below carries its recorded IC50.
Parameter measured: IC50 (µM)

>>> data_value("CC(C)(O)COCc1ccc(-c2cnc(NCc3c(F)ccc4c3CCO4)n3cnnc23)c2ncnn12")
0.0012
>>> data_value("Fc1ccc2c(c1CNc1ncc(-c3cccn4ncnc34)c3nncn13)CCO2")
0.0014
>>> data_value("O=S1(=O)C=c2ccc(-c3cnc(NCc4c(F)ccc5c4CCCO5)n4cnnc34)cc2=C1")
0.0016
>>> data_value("COC(=O)c1ccc(-c2cnc(NCc3c(F)ccc4c3CCO4)n3cnnc23)c2nccn12")
0.0051

---

Biological target: EED protein (His6-tagged full-length) binding to H3K27me3 polypeptide (Homo sapiens, UniProt O75530)
Construct: His6-tagged full-length EED protein (441 amino acids)
Sequence (O75530 whole entry): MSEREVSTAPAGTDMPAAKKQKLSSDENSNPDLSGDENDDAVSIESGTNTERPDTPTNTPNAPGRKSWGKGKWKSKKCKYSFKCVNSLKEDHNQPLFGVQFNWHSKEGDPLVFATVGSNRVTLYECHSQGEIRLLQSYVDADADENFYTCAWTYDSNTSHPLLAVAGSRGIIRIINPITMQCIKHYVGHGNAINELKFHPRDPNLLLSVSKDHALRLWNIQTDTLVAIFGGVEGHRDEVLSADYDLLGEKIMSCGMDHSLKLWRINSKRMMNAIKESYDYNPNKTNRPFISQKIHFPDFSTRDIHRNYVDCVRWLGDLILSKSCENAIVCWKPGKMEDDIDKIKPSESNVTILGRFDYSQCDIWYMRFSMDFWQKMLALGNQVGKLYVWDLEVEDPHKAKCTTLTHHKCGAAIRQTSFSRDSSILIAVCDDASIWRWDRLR
Experiment: AlphaScreen evaluation of blocking the binding of EED to H3K27Me3
Details: EED 60 nM, biotinylated H3K27me3 75 nM, 30 minutes incubation
Experimental: Firstly, compound solutions of different concentration gradients were prepared. Compound powder was dissolved in DMSO to prepare a mother liquor. 1.5 μl of the mother liquor of the compound was taken and added into 198.5 μl of a reaction buffer (25 mM HEPES (pH 8.0), 50 mM NaCl, 0.015% Tween 20, 0.5% BSA). The mixture was mixed uniformly. […] Finally, the detection was carried out with the AlphaScreen method. […] The signal was read using the AlphaScreen detector on the Spectra max i3. […]
Parameter measured: IC50 (µM)

>>> data_value("O=S1(=O)C=Cc2cc(-c3cnc(NCc4c(F)ccc5c4[C@H]4C[C@H]4O5)n4cnnc34)ccc21")
0.0038
>>> data_value("CC1=Cc2cc(-c3cnc(NCc4c(F)ccc5c4CCO5)n4cnnc34)cc(Cl)c2S1(=O)=O")
0.0039
>>> data_value("CC1=Cc2cc(-c3cnc(NCc4c(F)ccc5c4[C@H]4C[C@H]4O5)n4cnnc34)ccc2S1(=O)=O")
0.0049
>>> data_value("Fc1ccc2c(c1CNc1ncc(-c3cc(Cl)cn4ccnc34)c3nncn13)CCO2")
0.0044
